Ref: paper PMC5540273

Test system: PRKCD
condition_summary: concentration: 1 μM, replicates: in singlicate; n = 1;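 further: KINOMEscan kinase panel screen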
Hi there, I'd appreciate the recorded %Inh for every entry that follows.
One number for each entry, in %.

Please review the entries below; each comes with its answer.
INSERT INTO measurements (compound, target_or_system, val) VALUES
  ('FC(F)(F)c1ccc(-c2ncn(CCCN3CCOCC3)c2-c2ccncc2)cc1', 'PRKCD', 87),
  ('COc1cc(Nc2ccnc3ccc(C(F)(F)F)cc23)cc(OC)c1OC', 'PRKCD', 15),
  ('Cc1nc(N(C)[C@H]2CN(C(=O)CC#N)CC[C@H]2C)c2cc[nH]c2n1', 'PRKCD', 2),
  ('Cc1cc(Nc2nc(-c3cccc(C)n3)nc3ccccc23)ccn1', 'PRKCD', 8),
  ('Cn1c(=O)c(F)c(Nc2ccc(I)cc2F)c2c(=O)n(OC[C@H](O)CO)cnc21', 'PRKCD', 4),
  ('CCCNC(=O)Nc1ccc(Oc2ncnc3ccn(C)c23)cc1', 'PRKCD', 33),
  ('CCC(=O)c1c(-c2ccccc2)c2cc(Cl)ccc2c(=O)n1Cc1cc(C(=O)NC2CC2)n(C)n1', 'PRKCD', 8);

Now consider the entry below.
Qu. Give its %Inh value. Item: `Nc1n[nH]c2nnc(-c3ccccc3)c(-c3ccccc3)c12`
Ans. 3

----------
Tested on: PRKD3
condition_summary: concentration: 1 μM, replicates: in singlicate; n = 1
measured_property: %Inh
Note to self: number, then unit, no commentary.

INSERT INTO results (compound, val) VALUES
  ('Cl.NS(=O)(=O)c1cccc(Nc2cc(-c3ccc(F)cc3)n[nH]2)c1', '0%'),
  ('C[C@@H]1CC[C@H](C(=O)NC2CCCCC2)CN1c1cc(-c2ccc3c(N)n[nH]c3c2)nc(N)n1', '26%'),
  ('COC(=O)c1c(-c2ccccc2)c2cc(Br)ccc2c(=O)n1Cc1ccc(S(C)(=O)=O)cc1', '0%');

I would be grateful if you could provide %Inh for each of the following entries.
1. O=c1cc(N2CCOCC2)nc2n(Cc3ccc(F)c(Cl)c3)ccn12
2. O=C(Nc1n[nH]c2nc(-c3ccccc3)c(Br)cc12)C1CC1
3. Cc1cccc(-c2nc(Nc3ccc4c(cnn4C)c3)c3ccccc3n2)n1
4. FC(F)(F)c1ccc(-c2ncn(CCCN3CCOCC3)c2-c2ccncc2)cc1

Ans.
["12%", "17%", "90.2%", "0%"]

----------
Test system: PRKCI
condition_summary: concentration: 1 μM, replicates: in singlicate; n = 1
Hi there, I'd appreciate the recorded %Inh for every entry that follows.
One number for each entry, in %.

Please review the entries below; each comes with its answer.
INSERT INTO assay_data (compound, measured_property, unit_descriptor, val) VALUES
  ('Cl.c1ccc(Cn2cnc3cc(Nc4ncnc5ccccc45)ccc32)cc1 [GW272142]', '%Inh', '%', 0),
  ('Cn1c(=O)c(F)c(Nc2ccc(I)cc2F)c2c(=O)n(OC[C@H](O)CO)cnc21', '%Inh', '%', 34),
  ('OCCCNc1nccc(-c2c(-c3cccc(C(F)(F)F)c3)nn3cc(C(F)(F)F)ccc23)n1 [GW630813]', '%Inh', '%', 0),
  ('CN1C(=O)C(Nc2ccccc2)=C(c2ccccc2)C1=O [SB-300079]', '%Inh', '%', 0),
  ('COc1ccc(Nc2nccc(N3CCC(NS(=O)(=O)c4ccc(NC(C)=O)cc4)C3)n2)cc1 (stereo not shown) [GSK1379729]', '%Inh', '%', 22),
  ('COc1cc2nccc(Nc3cccc(Oc4ccccc4)c3)c2cc1OC.Cl [GW284543]', '%Inh', '%', 18);

I would be grateful if you could provide %Inh for each of the following entries.
1. CCS(=O)(=O)c1ccc(OC)c(Nc2ncc(-c3ccc(F)cc3)o2)c1.Cl [GW591947]
2. CN(C)c1cc(-c2ccc3c(N)n[nH]c3c2)nc(N)n1 [GSK2219329]
3. Nc1nc(N)c2nc(-c3ccccc3)[nH]c2n1 [SKF-12778]
4. COc1ccc(-c2coc3ccc(-c4nnc(SCc5cccc(C#N)c5)o4)cc23)cc1

Ans.
1. 11
2. 17
3. 36
4. 0
